assay: Selectivity index, ratio of GI50 for human HCT116 cells to MIC90 for Mycobacterium tuberculosis H37Ra ATCC 25177 active stage; type: toxicity, cell-based, HCT-116; details: read-out: Selectivity Index
Form field: selectivity ratio (one value per entry).
MEASURED QUANTITY: selectivity ratio

{"columns": ["STRUCTURE SMILES STRING", "OBSERVED"],
 "data": [
  ["C/C(=N\\NC(N)=S)c1sc(-c2ccccc2)nc1C", 27],
  ["C/C(=N\\Nc1nc(-c2ccc(Br)cc2)cs1)c1sc(C)nc1C", 2],
  ["C/C(=N\\Nc1nc(-c2ccc(Cl)cc2)cs1)c1sc(C)nc1C", 3],
  ["C/C(=N\\Nc1nc(-c2ccc(F)cc2)cs1)c1sc(-c2ccccc2)nc1C", 1],
  ["C/C(=N\\Nc1nc(-c2ccc(Cl)cc2)cs1)c1sc(-c2ccccc2)nc1C", 1],
  ["C/C(=N\\Nc1nc(-c2ccc(C)cc2)cs1)c1sc(C)nc1C", 1],
  ["C/C(=N\\Nc1nc(-c2ccccc2)cs1)c1sc(C)nc1C", 4],
  ["C/C(=N\\Nc1nc(-c2ccc(Br)cc2)cs1)c1sc(-c2ccccc2)nc1C", 1],
  ["C/C(=N\\Nc1nc(-c2ccc(C)cc2)cs1)c1sc(-c2ccccc2)nc1C", 1],
  ["C/C(=N\\Nc1nc(-c2ccccc2)cs1)c1sc(-c2ccccc2)nc1C", 11],
  ["COc1ccc(-c2csc(N/N=C(\\C)c3sc(-c4ccccc4)nc3C)n2)cc1", 15]
]}
